The following compounds are shown together with reported ALT plasma level values.
assay: Acute hepatotoxicity assay in Swiss mice (plasma liver markers); type: in vivo; details: Swiss mice, single 100 mg/kg intraperitoneal, 24 h after administration, plasma

| compound | ALT plasma level |
| --- | --- |
| Cc1c(-c2ccccc2)cc(F)c(Nc2ncccc2C(=O)O)c1F [Compound 48] | 44 IU/l |
| C/C(O)=C(\C#N)C(=O)Nc1ccc(C(F)(F)F)cc1 [Teriflunomide, reference compound] | 423 IU/l |
| CCOc1cccc(-c2ccc(Nc3ncccc3C(=O)O)c(F)c2)c1 [Compound 2] | 35 IU/l |
| CCOc1cccc(-c2ccc(Nc3ncccc3C(=O)O)c(OC(F)(F)F)c2)c1 [Compound 4] | 70 IU/l |
| COc1cccc(-c2ccc(Nc3ncccc3C(=O)O)c(F)c2)c1 [Compound 1] | 99 IU/l |
| Cc1c(-c2ccccc2Cl)cc(F)c(Nc2ncccc2C(=O)O)c1F [Compound 57] | 60 IU/l |
| O=C(O)c1cccnc1Nc1ccc(-c2cccc(OC(F)(F)F)c2)cc1F [Compound 3] | 52 IU/l |
| COc1cccc(-c2ccc(Nc3cnccc3C(=O)[O-])c(OC(F)(F)F)c2)c1.[Li+] [Compound 23] | 35 IU/l |
| O=C(O)c1cccnc1Nc1c(F)cc(-c2cccc(OC3CC3)c2)cc1F [Compound 47] | 66 IU/l |
| COc1cccc(-c2cc(F)c(Nc3ncccc3C(=O)O)c(F)c2)c1 [Compound 20] | 73 IU/l |
| CCOc1cccc(-c2cc(F)c(Nc3ncccc3C(=O)O)c(F)c2)c1 [Compound 19] | 60 IU/l |

* * *

biological target: human DHODH (Homo sapiens); assay: Inhibition of human DHODH activity assay (DCIP chromogen reduction); assay type: biochemical; conditions: chromogen reduction assay with DCIP, human enzyme extract; read-out: hDHODH IC50
Sequence (Q02127 whole entry): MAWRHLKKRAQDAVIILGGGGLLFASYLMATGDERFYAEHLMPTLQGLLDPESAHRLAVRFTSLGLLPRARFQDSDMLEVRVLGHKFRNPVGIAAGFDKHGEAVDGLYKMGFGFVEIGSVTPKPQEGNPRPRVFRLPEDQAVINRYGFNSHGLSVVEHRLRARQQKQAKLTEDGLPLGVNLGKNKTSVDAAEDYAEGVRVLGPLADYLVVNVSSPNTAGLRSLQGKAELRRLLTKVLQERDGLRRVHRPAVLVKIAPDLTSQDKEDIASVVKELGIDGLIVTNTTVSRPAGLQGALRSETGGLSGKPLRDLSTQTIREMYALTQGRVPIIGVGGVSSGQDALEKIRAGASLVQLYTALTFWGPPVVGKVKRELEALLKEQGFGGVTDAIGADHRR
pIC50: −log10 of the molar value.

| smiles.notation | pIC50 |
| --- | --- |
| COc1cccc(-c2cc(F)c(Nc3ncc(C)cc3C(=O)O)c(F)c2)c1 | 7.92 |

* * *

The following compounds are shown together with reported AST plasma level values.
assay: Acute hepatotoxicity assay in Swiss mice (plasma liver markers); format: in vivo; conditions: Swiss mice, single 100 mg/kg intraperitoneal, 24 h after administration, plasma
readout.name: AST plasma level (IU/l)

| compound | readout.name | result.number |
| --- | --- | --- |
| CCOc1cccc(-c2ccc(Nc3ncccc3C(=O)O)c(OC(F)(F)F)c2)c1 | AST plasma level | 108 |
| Cc1c(-c2ccccc2Cl)cc(F)c(Nc2ncccc2C(=O)O)c1F | AST plasma level | 109 |
| O=C(O)c1cccnc1Nc1ccc(-c2cccc(OC(F)(F)F)c2)cc1F | AST plasma level | 83 |
| O=C(O)c1cccnc1Nc1c(F)cc(-c2cccc(OC3CC3)c2)cc1F | AST plasma level | 91 |
| COc1cccc(-c2cc(F)c(Nc3ncccc3C(=O)O)c(F)c2)c1 | AST plasma level | 95 |
| COc1cccc(-c2ccc(Nc3cnccc3C(=O)[O-])c(OC(F)(F)F)c2)c1.[Li+] | AST plasma level | 72 |
| CCOc1cccc(-c2ccc(Nc3ncccc3C(=O)O)c(F)c2)c1 | AST plasma level | 57 |
| C/C(O)=C(\C#N)C(=O)Nc1ccc(C(F)(F)F)cc1 [Teriflunomide, reference compound] | AST plasma level | 542 |
| Cc1c(-c2ccccc2)cc(F)c(Nc2ncccc2C(=O)O)c1F | AST plasma level | 95 |
| CCOc1cccc(-c2cc(F)c(Nc3ncccc3C(=O)O)c(F)c2)c1 | AST plasma level | 92 |
| COc1cccc(-c2ccc(Nc3ncccc3C(=O)O)c(F)c2)c1 | AST plasma level | 84 |
